biological target: catalytic domain of human Bub1 (amino acids 704-1085) (Homo sapiens, UniProt O43683); construct: catalytic domain of human Bub1 (amino acids 704-1085); His6 (N); made in house; host or cells: Hi5 insect cells; test: Bub1 kinase assay (TR-FRET); format: biochemical; conditions: TR-FRET; ATP 10 μM, peptide substrate 1 μM; 60 min at 22° C.; average or median if tested more than once; read-out: Inhibition of Bub1 kinase IC50
Sequence (O43683 704-1085): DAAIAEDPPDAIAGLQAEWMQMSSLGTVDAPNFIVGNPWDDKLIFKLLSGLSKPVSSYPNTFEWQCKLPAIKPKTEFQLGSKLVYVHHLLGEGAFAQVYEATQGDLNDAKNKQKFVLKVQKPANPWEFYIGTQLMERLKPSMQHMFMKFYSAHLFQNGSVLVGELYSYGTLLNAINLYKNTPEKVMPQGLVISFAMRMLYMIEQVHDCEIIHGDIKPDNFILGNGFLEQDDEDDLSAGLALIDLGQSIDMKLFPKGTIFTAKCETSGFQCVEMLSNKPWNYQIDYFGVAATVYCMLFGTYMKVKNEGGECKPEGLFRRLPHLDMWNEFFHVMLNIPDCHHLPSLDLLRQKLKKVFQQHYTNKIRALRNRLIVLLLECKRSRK
pIC50: −log10 of the molar value.
Endpoint label: pIC50

Reference set, count: 8
molecule="CC(=O)Nc1cc(-c2[nH]c3c(c2Nc2ccccc2)C(=O)CN(C(=O)CCC(F)(F)F)C3)ccn1 [Example 190]" numeric_value=6.87
molecule="O=C(Nc1cc(-c2[nH]c3c(c2Nc2ccccc2)C(=O)CN(S(=O)(=O)c2cnc[nH]2)C3)ccn1)c1cncs1 [Example 161]" numeric_value=8.30
molecule="O=C1CN(S(=O)(=O)CC2CCOCC2)Cc2[nH]c(-c3ccncc3)c(Nc3ccccc3)c21 [Example 71]" numeric_value=8.10
molecule="O=C(Nc1cc(-c2[nH]c3c(c2Nc2ccccc2)C(=O)CNC3)ccn1)c1cnn[nH]1 [Example 275]" numeric_value=6.95
molecule="Cc1cnccc1-c1[nH]c2c(c1Nc1ccccc1)C(=O)CSC2 [Example 37]" numeric_value=6.32
molecule="O=C(Nc1cc(-c2[nH]c3c(c2Nc2ccccc2)C(=O)CN(S(=O)(=O)c2cnc[nH]2)C3)ccn1)c1ccc(F)cc1 [Example 160]" numeric_value=8.40
molecule="O=C1CNCc2[nH]c(-c3ccncc3F)c(Nc3ccccc3)c21 [Example 101]" numeric_value=7.37
molecule="CC(=O)Nc1cc(-c2[nH]c3c(c2Nc2ccccc2)C(=O)CN(C(=O)N2CCCC2)C3)ccn1 [Example 126]" numeric_value=8.15

a. CC(=O)Nc1cc(-c2[nH]c3c(c2Nc2ccccc2)C(=O)CN(C(=O)C(C)(C)C)C3)ccn1 [Example 181]
b. CC(C)(C)OC(=O)N1CC(=O)c2c([nH]c(-c3ccnc(NC(=O)C(C)(C)F)c3)c2Nc2ccccc2)C1 [Example 119]
**Query** Parameter metric = pIC50. Return the lower-valued option from a and b . Reply briefly: the label of your chosen item.
**Result** b

a. COc1cnccc1-c1[nH]c2c(c1Nc1ccccc1)C(=O)CNC2 [Example 103]
b. CNC(=O)N1CC(=O)c2c([nH]c(-c3ccncc3)c2Nc2ccccc2)C1 [Example 81]
**Query** Parameter metric = pIC50. Return the lower-valued option from a and b . Reply briefly: the label of your chosen item.
**Result** a
